What Extinction Coefficient was measured for each of the following?
# METHOD SUMMARY: FP purification and fluorescence characterization in vitro (spectra, extinction coefficient, quantum yield)
# Format: physicochemical
# TEST SETTINGS: evolved APCα FPs, Table 4

What measured Extinction Coefficient goes with R8-8: evolved APCα FP, SEQ ID NO: 9, with BV (protein, biliverdin chromophore; smRUFP Variant Polypeptide) MKTCEQRVKIATLLSENKKKIVDKASQDLWRRHPDLIAPGGIAFSQRDRALCLRDYGWYLHLITFCLLAGDKGPIESIGLIGIREMYNSLGVPVPAMMESIRCLKEASLSLLDEEDANETAPYFDYIIKAMS ?
260,000 M^−1 cm^−1

Could you do the same for R10-10: evolved APCα FP, SEQ ID NO: 11, with BV (protein, biliverdin chromophore; smRUFP Variant Polypeptide) MKTCEQRVNIATLLTENKKKIVDKASQDLWRRHPDLIAPGGIAFSQRDRALCLRDYGWYLHLITFCLLAGDKGPIESIGLIGIREMYNSLGVPVPAMMESIRCLKEASLSLLDEEDANETAPYFDYIIKAMS , please?
200,000 M^−1 cm^−1
